# target under test: T1, human ACVR2A (human, UniProt P27037 20-135, limits assumed); note: test concentration or dose not given here
# T1 construct: also called activin receptor, type II A
# T1 sequence (P27037 20-135 limits assumed): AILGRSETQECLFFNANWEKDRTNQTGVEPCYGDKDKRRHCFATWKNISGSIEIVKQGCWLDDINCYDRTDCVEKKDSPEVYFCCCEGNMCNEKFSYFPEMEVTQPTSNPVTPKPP
# assay: ELISA
assay readout: optical density (OD)
Give just the number in OD; leave the unit off.

binder: 371_D05 (antibody, V domains shown, Group II) VH: EVQLLESGGGLVQPGGSLRLSCAASGFTFDDYGMHWVRQAPGKGLEWVSGINYNGGYTSYADSVKGRFTISRDNSKNTLYLQMNSLRAEDTAVYYCARAATWHDTHLDYWGQGTLVTVSS VL: DIQMTQSPSSLSASVGDRVTITCRASQSILTYLNWYQQKPGKAPKLLIYAASSLQSGVPSRFSGSGSGTDFTLTISSLQPEDFATYYCQQSYDSPLTFGGGTKVEIK
val: 2.72
--
binder: 365_E12 (antibody, V domains shown, Group III) VH: EVQLLESGGGLVQPGGSLRLSCAASGFTFSDYGMNWVRQAPGKGLEWVSNINYNGGYTGYADSVKGRFTISRDNSKNTLYLQMNSLRAEDTAVYYCARGANWHDTALDYWGQGTLVTVSS VL: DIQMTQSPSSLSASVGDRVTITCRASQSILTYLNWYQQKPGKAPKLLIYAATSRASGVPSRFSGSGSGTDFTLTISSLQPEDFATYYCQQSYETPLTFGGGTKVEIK
val: 3.32
--
binder: 365_F10 (antibody, V domains shown, Group II) VH: EVQLLESGGGLVQPGGSLRLSCAASGFTFDDYGMHWVRQAPGKGLEWVSGINYNGGYTSYADSVKGRFTISRDNSKNTLYLQMNSLRAEDTAVYYCARAATWHDTHLDYWGQGTLVTVSS VL: DIQMTQSPSSLSASVGDRVTITCRASQSIVTYVNWYQQKPGKAPKLLIYAATSRASGVPSRFSGSGSGTDFTLTISSLQPEDFATYYCQQSYELPLTFGGGTKVEIK
val: 2.75

Qu. Entry 375_G08 (antibody, V domains shown, Group II) VH: EVQLLESGGGLVQPGGSLRLSCAASGFTFSSYGMHWVRQAPGKGLEWVSGINYNGGYTSYADSVKGRFTISRDNSKNTLYLQMNSLRAEDTAVYYCARAATWHDTHLDYWGQGTLVTVSS VL: DIQMTQSPSSLSASVGDRVTITCRASQSISSYVNWYQQKPGKAPKLLIYAVTSRASGVPSRFSGSGSGTDFTLTISSLQPEDFATYYCQQSYSTPLTFGGGTKVEIK has what optical density?
Ans. 3.33
